Molecular target: mGAT3 (Mus musculus)
Construct: expressed in transfected cells; host or cells: HEK-293
Assay: [3H]GABA uptake assay in HEK-293 cells stably expressing mGAT3
Format: cell-based
Settings: [3H]GABA uptake; read-out: pIC50 ± SEM mGAT3 (converted)
Answer each item with its documented IC50.
Don't forget the unit after the number, please.

| compound | experimental-target | observed |
| --- | --- | --- |
| CC(O)CC(C(=O)NCc1ccccc1)N(C)CCON=C(c1ccccc1)c1ccccc1 (stereo not drawn) [2RS,4SR-45] | mGAT3 (Mus musculus) | 18.2 µM |

Please give IC50, item by item, for the list that follows.
1. CC(O)CC(C(=O)NCc1ccc(F)cc1)N1CCC(=C2c3ccccc3CCc3ccccc32)CC1 (stereo not drawn) [2RS,4RS-43b]
2. Cc1ccc(CNC(=O)C(CO)N(C)CCC=C2c3ccccc3CCc3ccccc32)cc1 (stereo not drawn) [Compound 56e]

1: 38 µM; 2: 20.4 µM

---

Target: mGAT4 (Mus musculus)
Construct: expressed in transfected cells; host or cells: HEK-293
Sequence (P31650 whole entry): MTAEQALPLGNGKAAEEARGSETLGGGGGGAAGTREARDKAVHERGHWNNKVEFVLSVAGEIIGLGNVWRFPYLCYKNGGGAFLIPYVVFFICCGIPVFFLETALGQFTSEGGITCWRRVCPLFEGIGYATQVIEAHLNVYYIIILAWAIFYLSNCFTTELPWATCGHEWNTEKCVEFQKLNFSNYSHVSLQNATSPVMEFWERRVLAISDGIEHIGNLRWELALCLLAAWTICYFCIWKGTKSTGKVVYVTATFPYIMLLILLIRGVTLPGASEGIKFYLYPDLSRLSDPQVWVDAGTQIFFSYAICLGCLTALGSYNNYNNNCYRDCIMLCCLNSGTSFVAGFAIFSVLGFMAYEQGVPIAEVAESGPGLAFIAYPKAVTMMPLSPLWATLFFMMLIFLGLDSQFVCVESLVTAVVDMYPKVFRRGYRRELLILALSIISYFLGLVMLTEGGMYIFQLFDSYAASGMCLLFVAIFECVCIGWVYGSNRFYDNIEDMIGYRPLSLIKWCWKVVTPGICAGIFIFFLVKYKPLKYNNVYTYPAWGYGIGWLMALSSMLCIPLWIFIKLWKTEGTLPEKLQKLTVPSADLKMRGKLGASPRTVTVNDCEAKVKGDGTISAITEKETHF
Test: [3H]GABA uptake assay in HEK-293 cells stably expressing mGAT4
Assay type: cell-based
Conditions: [3H]GABA uptake; read-out: pIC50 ± SEM mGAT4 (converted)
# Fulfilled = IC50 below 20 µM (exclusive); Not fulfilled = IC50 at/above 20 µM

| compound | category |
| --- | --- |
| CC(O)CC(C(=O)NCc1ccccc1)N1CCC(=C2c3ccccc3CCc3ccccc32)CC1 (stereo not drawn) [2RS,4SR-43a] | Fulfilled |
| CN(CCC=C1c2ccccc2CCc2ccccc21)C(CO)C(=O)NCc1ccc(Cl)cc1 (stereo not drawn) [Compound 56c] | Fulfilled |
| Cc1ccsc1C(=C1CCN(C(CC(C)O)C(=O)NCc2ccccc2Cl)CC1)c1sccc1C (stereo not drawn) [2RS,4RS-37b] | Not fulfilled |
| C[C@H](O)C[C@H](C(=O)NCc1ccc(Cl)cc1)N(C)CCC=C1c2ccccc2CCc2ccccc21 (relative stereo) [2RS,4SR-39b] | Fulfilled |
| CC(=O)NCCC(C(=O)NCc1ccc(Cl)c(Cl)c1)N(C)CCON=C(c1ccccc1)c1ccccc1 (stereo not drawn) [Compound 51b] | Fulfilled |
| Cc1ccsc1C(=C1CCN(C(CO)C(=O)NCc2ccccc2Cl)CC1)c1sccc1C (stereo not drawn) [Compound 54b] | Not fulfilled |

Input CN(CCON=C(c1ccccc1)c1ccccc1)C(CCN)C(=O)NCc1ccc(Cl)c(Cl)c1 (stereo not drawn) [Compound 50b] ; condition: IC50 strictly below 20 µM. Does it hold? Fulfilled

Consider CN(CCC=C1c2ccccc2C=Cc2ccccc21)C(CO)C(=O)NCc1ccccc1Cl (stereo not drawn) [Compound 55b] . Does its IC50 lie strictly below 20 µM? Fulfilled

Decide: IC50 of CN(CCC=C1c2ccccc2C=Cc2ccccc21)C(CO)C(=O)NCc1ccccc1 (stereo not drawn) [Compound 55a] strictly below 20 µM? Fulfilled

Here's an entry: Cc1ccsc1C(=CCCN(C)C(C)C(=O)NCc1ccccc1)c1sccc1C (stereo not drawn) . Is its IC50 below 20 µM? Fulfilled

For CN(CCON=C(c1ccccc1)c1ccccc1)C(CO)C(=O)NCc1ccccc1Cl (stereo not drawn) [Compound 59b] , is the recorded IC50 below the cut-off of 20 µM? Fulfilled

Item CN(CCON=C(c1ccccc1)c1ccccc1)C(CO)C(=O)NCc1ccccc1 (stereo not drawn) [Compound 59a] : IC50 beneath 20 µM, strictly? Not fulfilled

---

Target: mGAT3 (Mus musculus, UniProt P31649)
Construct: expressed in transfected cells; host or cells: HEK-293
Sequence (P31649 1-602): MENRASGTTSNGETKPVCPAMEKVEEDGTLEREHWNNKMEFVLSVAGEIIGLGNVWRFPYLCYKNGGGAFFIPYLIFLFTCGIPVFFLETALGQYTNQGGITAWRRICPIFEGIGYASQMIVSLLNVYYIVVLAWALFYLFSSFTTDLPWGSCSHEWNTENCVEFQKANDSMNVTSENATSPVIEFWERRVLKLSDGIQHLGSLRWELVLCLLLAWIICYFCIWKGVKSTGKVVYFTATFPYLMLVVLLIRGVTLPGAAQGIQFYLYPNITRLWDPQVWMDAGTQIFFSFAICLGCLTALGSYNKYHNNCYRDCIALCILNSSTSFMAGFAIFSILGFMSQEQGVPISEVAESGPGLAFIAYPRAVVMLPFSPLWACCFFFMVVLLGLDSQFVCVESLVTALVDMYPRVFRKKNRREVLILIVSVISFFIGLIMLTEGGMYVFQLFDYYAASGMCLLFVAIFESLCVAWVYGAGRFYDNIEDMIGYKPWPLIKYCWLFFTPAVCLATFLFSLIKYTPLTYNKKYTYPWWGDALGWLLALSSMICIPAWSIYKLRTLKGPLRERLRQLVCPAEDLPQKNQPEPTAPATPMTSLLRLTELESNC
Test: [3H]GABA uptake assay in HEK-293 cells stably expressing mGAT3
Format: cell-based
Conditions: [3H]GABA uptake; read-out: pIC50 ± SEM mGAT3 (converted)
Assign labels as follows, please: YES for IC50 below 20 µM; NO for IC50 equal to or exceeding 20 µM.

Identify whether the molecule CC(=O)NCCC(C(=O)NCc1ccccc1Cl)N(C)CCON=C(c1ccccc1)c1ccccc1 (stereo not drawn) [Compound 51a] records IC50 below 20 µM. YES

Consider CCOC(=O)C(C)N(C)CCC=C(c1sccc1C)c1sccc1C (stereo not drawn) . Does its IC50 lie strictly below 20 µM? NO

# check: IC50 < 20 µM for O=C(NCc1ccccc1)C(CO)N1CCC(=C2c3ccccc3CCc3ccccc32)CC1 (stereo not drawn) NO

Record Cc1ccsc1C(=C1CCN(C(CO)C(=O)NCc2ccccc2)CC1)c1sccc1C (stereo not drawn) [Compound 54a] : is its IC50 strictly below 20 µM? YES

IC50 strictly < 20 µM for this molecule? Cc1ccc(CNC(=O)[C@@H](C[C@H](C)O)N(C)CCC=C2c3ccccc3CCc3ccccc32)cc1 (relative stereo) [2RS,4SR-39c] YES

State whether 20 µM exceeds IC50 recorded for CN(CCC=C1c2ccccc2CCc2ccccc21)C(CO)C(=O)NCc1ccc(F)cc1 (stereo not drawn) [Compound 56d] . YES

Determine if CN(CCON=C(c1ccccc1)c1ccccc1)C(CO)C(=O)NCc1ccccc1 (stereo not drawn) [Compound 59a] shows IC50 strictly lower than 20 µM. NO

Is 20 µM strictly greater than the molecule's reported IC50? molecule: Cc1ccsc1C(=C1CCN([C@H](C[C@@H](C)O)C(=O)NCc2ccc(F)cc2)CC1)c1sccc1C (relative stereo) [2RS,4RS-37c] YES

Is 20 µM strictly greater than the molecule's reported IC50? molecule: Cc1ccsc1C(=C1CCN(C(CO)C(=O)NCc2ccccc2Cl)CC1)c1sccc1C (stereo not drawn) [Compound 54b] NO

Check if IC50 falls below 20 µM for Cc1ccsc1C(=C1CCN(C(CO)C(=O)NCc2ccc(F)cc2)CC1)c1sccc1C (stereo not drawn) [Compound 54c] . YES

Quick check: does CN(CCC=C1c2ccccc2CCc2ccccc21)C(CO)C(=O)NCc1ccccc1Cl (stereo not drawn) [Compound 56b] have IC50 under 20 µM? YES

Find out if reported IC50 for Cc1ccsc1C(=C1CCN([C@H](C[C@H](C)O)C(=O)NCc2ccccc2)CC1)c1sccc1C (relative stereo) [2RS,4SR-37a] is less than 20 µM NO

Below 20 µM on IC50? Entry CN(CCC=C1c2ccccc2C=Cc2ccccc21)C(CO)C(=O)NCc1ccccc1 (stereo not drawn) [Compound 55a] YES

Problem: For the molecule CCC(C(=O)NCc1ccccc1Cl)N(C)CCON=C(c1ccccc1)c1ccccc1 (stereo not drawn) [Compound 66b] , is IC50 under 20 µM? NO

Threshold test, IC50 < 20 µM: CC(O)CC(C(=O)NCc1ccc(F)cc1)N(C)CCC=C1c2ccccc2CCc2ccccc21 (stereo not drawn) [2RS,4RS-39a] YES

Does the reported IC50 of the following molecule sit strictly below 20 µM? CCC(C(=O)NCc1ccccc1)N(C)CCON=C(c1ccccc1)c1ccccc1 (stereo not drawn) [Compound 66a] YES

Hello, I'm reviewing records and need to know if IC50 of C[C@@H](O)C[C@H](C(=O)NCc1ccc(Cl)cc1)N(C)CCC=C1c2ccccc2CCc2ccccc21 (relative stereo) [2RS,4RS-39b] is below 20 µM. Could you check? NO

---

Biological target: mGAT4 (Mus musculus)
Construct: expressed in transfected cells; host or cells: HEK-293
Test: [3H]GABA uptake assay in HEK-293 cells stably expressing mGAT4
Assay type: cell-based
Settings: [3H]GABA uptake; read-out: pIC50 ± SEM mGAT4 (converted)
Strictly below 20 µM in IC50: TRUE. Otherwise: FALSE.

Field: example entries. Status: answers known.
| molecule | category |
| --- | --- |
| CN(CCC=C1c2ccccc2C=Cc2ccccc21)C(CO)C(=O)NCc1ccc(F)cc1 (stereo not drawn) [Compound 55d] | TRUE |
| CC(O)CC(C(=O)NCc1ccccc1)N1CCC(=C2c3ccccc3CCc3ccccc32)CC1 (stereo not drawn) [2RS,4RS-43a] | FALSE |
| Cc1ccsc1C(=C1CCN([C@H](C[C@@H](C)O)C(=O)NCc2ccccc2)CC1)c1sccc1C (relative stereo) [2RS,4RS-37a] | FALSE |

Attention now turns to another entry.
Would you kindly verify if IC50 of Cc1ccc(CNC(=O)C(CO)N(C)CCC=C2c3ccccc3CCc3ccccc32)cc1 (stereo not drawn) [Compound 56e] is strictly less than 20 µM? TRUE

// provenance: paper PMC8397297
